- target_entity: GID4 (Uniprot ID: Q81VV7, residues 124-289) (Homo sapiens, UniProt Q8IVV7)
- Construct: GID4 (Uniprot ID: Q81VV7, residues 124-289)
- protocol_text: GID4 competitive binding assay (AlphaScreen, GID4/degron peptide PGLW)
- protocol_conditions: 24 nM GID4, 48 nM biotinylated degron peptide PGLW, 4° C., read-out: IC50 (Inhibition of GID4/Degron binding by test compounds)

| compound | IC50 |
| --- | --- |
| Nc1nc(N)c(F)c(N2CCOC(c3ccccc3Br)C2)n1 (single isomer, unassigned) | > 5000 nM |
| CCOc1ccc(Br)c(C2CN(c3cc(C(C)C)nc(N)n3)CCN2)c1 (single isomer, unassigned) | < 500 nM |
| CN(C)CCCNC(=O)c1ccc(-c2cc(O)c3ncccc3c2)c(Br)c1 | 500 to 5000 nM |
| CNc1cc(N2CCNC(c3csc4ccccc34)C2)nc(N)n1 (stereo not shown) | 500 to 5000 nM |
